- Test system: Hs-578T
- PROTOCOL_TEXT: NCI tumour cell line growth inhibition, 48 h
The source made the active and inactive calls. Rule as the data show it: active = GI50 up to about 1.1 µM and inactive = higher.
MEASURED_METRIC: GI50

CC(=O)NC1C(OCc2ccccc2)OC(CO)C(O)C1OCC(=O)NC(C)C(=O)NC(CCC(=O)NCCCCCNc1c2ccccc2nc2cccc([N+](=O)[O-])c12)C(N)=O (stereo unspecified)	< 0.01 µM (active)
COc1cc([C@@H]2c3cc4c(cc3[C@@H](/N=C/c3ccc(C(=O)O[C@H]5C[C@H]6OC[C@@]6(OC(C)=O)[C@H]6[C@H](OC(=O)c7ccccc7)[C@]7(O)C[C@H](OC(=O)[C@H](OC(=O)c8ccc(/C=N/[C@@H]9c%10cc%11c(cc%10[C@@H](c%10cc(OC)c(O)c(OC)c%10)[C@H]%10C(=O)OC[C@@H]%109)OCO%11)cc8)[C@@H](NC(=O)c8ccccc8)c8ccccc8)C(C)=C([C@@H](OC(C)=O)C(=O)[C@]56C)C7(C)C)cc3)C3COC(=O)C32)OCO4)cc(C)c1O (stereo partly specified)	> 46 µM (inactive)
O=C1CC(/C=C/c2ccco2)=C(O)C1=O	16.7 µM (inactive)
CCNc1nc2ccccc2nc1NCC	> 100 µM (inactive)
Nc1ccc2c(c1)S(=O)(=O)c1cc(O)ccc1O2	> 100 µM (inactive)
C=C(C)C1CC=C(C)C(=O)C1 (stereo unspecified) [CARVONE]	> 100 µM (inactive)
